- method.description: refractive index (Na D-line) (dimensionless); wn = mass fraction of the nth substance listed
- condition.context: 328.15 K; 101 kPa; Liquid; Standard Abbe refractometry; w1 = 0.1
Numbers after ± are expanded uncertainties.
Readings of refractive index for the listed compounds
assay.metric: refractive index

1. OCCNCCO [diethanolamine] + O	1.34148 ± 0.00031
2. CC(O)CNCC(C)O (centres undefined) [N-(2-hydroxypropyl)-2-hydroxy-1-propanamine] + O	1.34256 ± 0.00032
3. CC(O)CN(CC(C)O)CC(C)O (centres undefined) [triisopropanolamine] + O	1.34287 ± 0.00033
4. CC(O)CN (centres undefined) [1-amino-2-propanol] + O	1.3405 ± 0.00032
